- Test system: 521955-158-R2-J5-PDC complex spheroid viability
- Measurement Description: Anticancer human tumor 521955-158-R2-J5-PDC patient-derived pancreatic carcinoma cell line growth inhibition [GQUAD]
- Condition Set: second compound 3.16 µM; first compound 0.1 µM; stronger effect = lower value
With a cut-off of 20%, any viability, T/C strictly below it is called MET; any viability, T/C meeting it or above is called NOT MET.

Answered examples (4):
Molecule | Measured On | Group
Cc1cccc(N(C)C(=O)C2C(O)CCN2c2nc(C)cc(C(F)(F)F)c2C#N)c1 (stereo not given) + Cc1cnc(CNC(=O)c2c(=O)c3ccc(N4CCCN(C)CC4)nc3n3c2sc2ccccc23)cn1 | 521955-158-R2-J5-PDC complex spheroid viability | NOT MET
CC(C)n1c(=O)n(C)c2cnc3cc(F)c(-c4ccc(OCCCN5CCCCC5)nc4)cc3c21 + Cc1cnc(CNC(=O)c2c(=O)c3ccc(N4CCCN(C)CC4)nc3n3c2sc2ccccc23)cn1 | 521955-158-R2-J5-PDC complex spheroid viability | MET
C#Cc1c(F)ccc2cc(O)cc(-c3ncc4c(N5CC6CCC(C5)N6)nc(OCC56CCCN5CC(F)C6)nc4c3F)c12 (stereo not given) + Cc1[nH]c2ccc(F)cc2c1-c1nc2c3cccnc3c3ncccc3c2[nH]1 | 521955-158-R2-J5-PDC complex spheroid viability | NOT MET
CC1COCCN1c1cc(C2(O)CC3CCC(C2)O3)c2cnn(-c3ccn[nH]3)c2n1 (stereo not given) + CN(C)c1ccc(Nc2c3ccc(NC(=O)CCN4CCCC4)cc3nc3cc(NC(=O)CCN4CCCC4)ccc23)cc1 | 521955-158-R2-J5-PDC complex spheroid viability | NOT MET

Consider the record given below.
viability, T/C strictly < 20% for this molecule? C#Cc1c(F)ccc2cc(O)cc(-c3ncc4c(N5CC6CCC(C5)N6)nc(OCC56CCCN5CC(F)C6)nc4c3F)c12 (stereo not given) + Cc1cnc(CNC(=O)c2c(=O)c3ccc(N4CCCN(C)CC4)nc3n3c2sc2ccccc23)cn1
MET

---

Record form. Attribute: viability, T/C. Fill in for each entry.
- Test system: 521955-158-R2-J5-PDC complex spheroid viability
- Measurement Description: Anticancer human tumor 521955-158-R2-J5-PDC cell line growth inhibition [GQUAD];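 also: spheroids exposed to agents for one week before reading; 100% = DMSO vehicle control viability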
- Condition Set: second compound 3.16 µM; first compound 0.1 µM; stronger effect = lower value
Numbers only, in %.

Compound | Value
COc1ccc([C@@H](O)c2cc(-c3ncnc4cc(N5CCOCC5)ccc34)c(F)cc2Cl)nn1 + Cc1cnc(CNC(=O)c2c(=O)c3ccc(N4CCCN(C)CC4)nc3n3c2sc2ccccc23)cn1 | 20.4
CC1COCCN1c1cc(C2(O)CC3CCC(C2)O3)c2cnn(-c3ccn[nH]3)c2n1 (stereo not drawn) + Cc1[nH]c2ccc(F)cc2c1-c1nc2c3cccnc3c3ncccc3c2[nH]1 | 10.7

# evaluate next
compound CC1COCCN1c1cc(-c2ccnn2C)c2ccnc(-c3ccn[nH]3)c2n1 (stereo not drawn) + Cc1cnc(CNC(=O)c2c(=O)c3ccc(N4CCCN(C)CC4)nc3n3c2sc2ccccc23)cn1 , viability, T/C observed: 12.2

---

- System: 521955-158-R2-J5-PDC complex spheroid viability
- Measurement Description: Anticancer human tumor 521955-158-R2-J5-PDC cell line growth inhibition [GQUAD]; active means viability on the fitted dose curve at most 10% of control; inactive means the rest;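 also: spheroids exposed to agents for one week before reading; 100% = DMSO vehicle control viability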
- Condition Set: second compound 3.16 µM; first compound 0.316 µM
Hi! Could you answer with just one of these? t for active, f for inactive

For CC(C)(O)C1CCC(Nc2ccc3ncc(-c4cccc(C(F)(F)F)c4)n3n2)CC1 (stereo not drawn) + CN(C)c1ccc(Nc2c3ccc(NC(=O)CCN4CCCC4)cc3nc3cc(NC(=O)CCN4CCCC4)ccc23)cc1 , which call appears in the assay record?
f

I would be grateful if you could indicate the recorded call for CC1COCCN1c1cc(C2(O)CC3CCC(C2)O3)c2cnn(-c3ccn[nH]3)c2n1 (stereo not drawn) + Cc1[nH]c2ccc(F)cc2c1-c1nc2c3cccnc3c3ncccc3c2[nH]1 .
f

Look up the recorded call for O=c1[nH]cc(F)c(=O)[nH]1 + Cc1cnc(CNC(=O)c2c(=O)c3ccc(N4CCCN(C)CC4)nc3n3c2sc2ccccc23)cn1 in this test.
f

How was CC1COCCN1c1cc(C2(S(C)(=N)=O)CC2)nc(-c2ccnc3[nH]ccc23)n1 (stereo not drawn) + Cc1cnc(CNC(=O)c2c(=O)c3ccc(N4CCCN(C)CC4)nc3n3c2sc2ccccc23)cn1 classified in this test?
f

Lab log entry: Cn1ncnc1[C@H]1c2n[nH]c(=O)c3cc(F)cc(c23)N[C@@H]1c1ccc(F)cc1 + Cc1[nH]c2ccc(F)cc2c1-c1nc2c3cccnc3c3ncccc3c2[nH]1 — outcome as called in the assay?
f

Recorded test call requested for CCc1c2c(nc3ccc(O)cc13)-c1cc3c(c(=O)n1C2)COC(=O)[C@]3(O)CC + CN(C)c1ccc(Nc2c3ccc(NC(=O)CCN4CCCC4)cc3nc3cc(NC(=O)CCN4CCCC4)ccc23)cc1
t

For CC(=O)O[C@H]1C(=O)[C@@]2(C)[C@H]([C@H](OC(=O)c3ccccc3)[C@]3(O)C[C@H](OC(=O)[C@H](O)[C@@H](NC(=O)c4ccccc4)c4ccccc4)C(C)=C1C3(C)C)[C@]1(OC(C)=O)CO[C@@H]1C[C@@H]2O + Cc1cnc(CNC(=O)c2c(=O)c3ccc(N4CCCN(C)CC4)nc3n3c2sc2ccccc23)cn1 , what call appears in the results of this test?
t

Per the records of this test, what outcome belongs to CCCS(=O)(=O)Nc1ccc(F)c(C(=O)c2c[nH]c3ncc(-c4ccc(Cl)cc4)cc23)c1F + Cc1[nH]c2ccc(F)cc2c1-c1nc2c3cccnc3c3ncccc3c2[nH]1 ?
f

Please state the recorded outcome for this molecule: COc1cccc2c1C(=O)c1c(O)c3c(c(O)c1C2=O)CC(O)(C(=O)CO)CC3OC1CC(N)C(O)C(C)O1 (stereo not drawn) + Cc1[nH]c2ccc(F)cc2c1-c1nc2c3cccnc3c3ncccc3c2[nH]1
f

Each molecule tested received a call. Report the one for CC1COCCN1c1cc(-c2ccnn2C)c2ccnc(-c3ccn[nH]3)c2n1 (stereo not drawn) + Cc1[nH]c2ccc(F)cc2c1-c1nc2c3cccnc3c3ncccc3c2[nH]1 .
f

Test call, this molecule: Cc1[nH]c2ccccc2c1CCNCc1ccc(/C=C/C(=O)NO)cc1 + Cc1cnc(CNC(=O)c2c(=O)c3ccc(N4CCCN(C)CC4)nc3n3c2sc2ccccc23)cn1
t

What was the test verdict on CC1COCCN1c1cc(-c2ccnn2C)c2ccnc(-c3ccn[nH]3)c2n1 (stereo not drawn) + CN(C)c1ccc(Nc2c3ccc(NC(=O)CCN4CCCC4)cc3nc3cc(NC(=O)CCN4CCCC4)ccc23)cc1 ?
f

Which outcome did this test record for the molecule Cc1[nH]c2ccccc2c1CCNCc1ccc(/C=C/C(=O)NO)cc1 + Cc1[nH]c2ccc(F)cc2c1-c1nc2c3cccnc3c3ncccc3c2[nH]1 ?
f
